These data points were gathered from ChEMBL document CHEMBL1201862.

Target: Streptokinase A (Streptococcus pyogenes serotype M1)
Sequence (P10520 whole entry): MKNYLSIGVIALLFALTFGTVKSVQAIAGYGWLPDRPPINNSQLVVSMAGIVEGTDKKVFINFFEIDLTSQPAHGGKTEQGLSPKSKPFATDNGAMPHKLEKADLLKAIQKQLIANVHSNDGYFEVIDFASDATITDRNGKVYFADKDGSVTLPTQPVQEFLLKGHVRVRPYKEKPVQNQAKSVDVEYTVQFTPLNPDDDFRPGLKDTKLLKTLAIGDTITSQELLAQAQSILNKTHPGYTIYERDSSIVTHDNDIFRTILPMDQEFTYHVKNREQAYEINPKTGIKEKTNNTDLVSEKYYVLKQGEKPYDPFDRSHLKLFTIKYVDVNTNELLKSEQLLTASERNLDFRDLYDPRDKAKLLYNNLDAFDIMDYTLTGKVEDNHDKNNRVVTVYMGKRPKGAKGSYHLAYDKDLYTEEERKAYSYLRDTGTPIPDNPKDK
Assay: S. pyogenes streptokinase expression inhibitors, potency, dose response, plasminogen activation absorbance, OD405 (AID 1914);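 also: secreted streptokinase activity via plasminogen activation per viability signal from cell pellet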
Type: functional, Streptococcus pyogenes M1 GAS
Calls of active or inactive are those of the source. Rule as the data show it: actives have a measured EC50 and inactives only a lower limit.
Exercise: for every item that follows, state its recorded EC50.

CNC(=O)C(=O)NCC1OCCN1S(=O)(=O)c1ccc(OC)c(OC)c1 (stereo not drawn) yielded EC50 of > 150 µM (not active)

The recorded EC50 for entry CCCc1nc(NCc2ccccc2)c(C#N)c2c1CCCC2 equals 3.06 µM (active)

According to the records, this compound C=CCO/C(O)=C1\C(C)=NC(SCC)=C(C#N)C1c1ccc(Cl)cc1 (stereo not drawn) displays EC50 of 8.34 µM (active)

# EC50 of CC12CCC(C(=O)N(CSC(=S)N/N=C\c3ccccc3O)C1=O)C2(C)C (stereo not drawn) = > 150 µM (not active)

According to the records, this compound CCOc1ccc(N(C)c2ccc(/C=C3/SC(=S)NC3=O)cc2)cc1 displays EC50 of > 150 µM (not active)

GET /value?item= Cn1ncc(Cl)c1C(=O)N1CCC2(CC1)OCCO2 &field=EC50 returns > 150 µM (not active)

What the record says about COC(=O)c1sc(N2C(=O)C(O)=C(C(=O)c3ccc(C)o3)C2c2ccc([N+](=O)[O-])cc2)nc1C (stereo not drawn) : EC50 is > 150 µM (not active)

// sample CCOc1ccc(-n2c(C)cc(/C=C3/C(=N)N4C(=NC3=O)SN=C4S(C)(=O)=O)c2C)cc1 , its EC50 was > 150 µM (not active)

In plain terms, Cc1cccc(OCCn2c(NC(=O)c3ccco3)nc3ccccc32)c1 has a documented EC50 of > 150 µM (not active)

Sure, the documented EC50 for CCn1cnc2c1c(=O)n(CC(=O)Nc1cc(C)on1)c(=O)n2Cc1ccccc1 is > 150 µM (not active)

Reported EC50 for NNC(=O)/C(=N/Nc1ccccc1)S(=O)(=O)c1ccc(Cl)cc1 was > 150 µM (not active)

EC50 in this record for Oc1cc(CSc2ccc(Cl)cc2)nc(-c2ccccn2)n1 : > 150 µM (not active)

CCS(=O)(=O)c1nc(S(=O)(=O)c2ccc(C)cc2)c(NCCN2CCOCC2)s1 has a reported EC50 of > 150 µM (not active)

For c1ccc(C(NCCNC(c2ccccc2)c2ccccc2)c2ccccc2)cc1 the compound record lists EC50 as 12 µM (active)

According to the records, this compound CC1=NN(C(N)=S)C(=O)C1N=Nc1c(C)cc(C)cc1C (stereo not drawn) displays EC50 of > 150 µM (not active)

compound Clc1ccc(/C=N/N=C(/Nc2ccccc2)c2ccccn2)c(Cl)c1 , EC50 observed: > 150 µM (not active)

Sure, the documented EC50 for O=C(CSc1nc(Nc2ccccc2)nc(N2CCOCC2)n1)Nc1cc(Cl)ccc1O is 30.7 µM (active)

For record COc1ccc(OC)c(NC(=O)NCc2cccnc2)c1 the listed EC50 is > 150 µM (not active)
